Documented Receptor downregulation, (EC50) (pM) across a set of binders
TARGET: human CD33 on primary human dendritic cells (human, UniProt P20138 18-364)
Sequence (P20138 18-364): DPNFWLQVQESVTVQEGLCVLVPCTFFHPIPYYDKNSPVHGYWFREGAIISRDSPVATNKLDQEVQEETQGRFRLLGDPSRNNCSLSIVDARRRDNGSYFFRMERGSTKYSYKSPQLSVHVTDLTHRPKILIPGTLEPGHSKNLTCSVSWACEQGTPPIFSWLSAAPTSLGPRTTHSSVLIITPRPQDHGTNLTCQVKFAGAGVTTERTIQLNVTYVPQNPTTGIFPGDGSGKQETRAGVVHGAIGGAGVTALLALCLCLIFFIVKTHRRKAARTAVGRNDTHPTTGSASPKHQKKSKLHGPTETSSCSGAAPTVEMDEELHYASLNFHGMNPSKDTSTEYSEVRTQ
EXPERIMENT_SUMMARY: cell-based or functional assay
Quick reminder: number only, in pM, skip the unit.

Solved entries (count: 8):
anti-CD33 antibody 6C7H36 (antibody, V domains shown, VH/VL only) VH: EVQLVESGGGLVQPGGSLRLSCAASGFTFSEYAMLWVRQAPGKGLEWVGEIRLKSNNYVTNYAASVKGRFTISRDDSKNSVYLQMNSLKTEDTGVYYCTRAGYYVPFTYWGQGTLVTVSS VL: QLMLTQSPSASASLGASVKLTCTLSSQHSTYTIEWYQQQPGKGPRYLMELKKEGSHSTGDGIPDRFSGSSSGAERYLTISSLQSEDEADYYCGVGHTIKEQFVYEFGGGTKLTVL	49.1
anti-CD33 antibody 6C7H37 (antibody, V domains shown, VH/VL only) VH: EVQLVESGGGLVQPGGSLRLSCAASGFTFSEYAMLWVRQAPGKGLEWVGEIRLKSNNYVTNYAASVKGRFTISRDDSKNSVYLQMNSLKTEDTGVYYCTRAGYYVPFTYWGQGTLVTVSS VL: QLMLTQSPSASASLGASVKLTCTLSSQHSTYTIEWYQQQPGKGPRYLMELKKEGSHSTGDGIPDRFSGSSSGAERYLTISSLQSEDEADYYCGVGHTIKEQFVYVFGGGTKLTVL	59.3
anti-CD33 antibody 6C7H41 (antibody, V domains shown, VH/VL only) VH: EVQLVESGGGLVQPGGSLRLSCAASGFTFSEYDMLWVRQAPGKGLEWVGEIRLKSNNYVTNYAASVKGRFTISRDDTKNSVYLQMNSLKTEDTGVYYCTRAGYYVPFAYWGQGTLVTVSS VL: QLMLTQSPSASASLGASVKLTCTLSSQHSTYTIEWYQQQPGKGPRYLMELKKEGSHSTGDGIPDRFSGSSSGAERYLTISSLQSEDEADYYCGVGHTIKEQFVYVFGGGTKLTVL	34.2
anti-CD33 antibody 6C7H54 (antibody, IgG1, V domains shown, VH/VL only; also called 6C7H54 IgG1; 6C754) VH: EVQLVESGGGLVQPGGSLRLSCAGSGFTFSNYEMNWVRQAPGKGLEWVAEIRLKSNNYVTNYAASVKGRFTISRDDSKNSVYLQMNSLKTEDTGVYYCTRAGYYVPFAYWGQGTLVTVSS VL: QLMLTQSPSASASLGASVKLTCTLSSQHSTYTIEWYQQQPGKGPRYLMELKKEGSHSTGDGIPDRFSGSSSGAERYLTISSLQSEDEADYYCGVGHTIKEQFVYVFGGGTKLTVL	30.2
anti-CD33 antibody 6C7H43 (antibody, V domains shown, VH/VL only) VH: EVQLVESGGGLVQPGGSLRLSCAASGFTFSEYDMLWVRQAPGKGLEWVGEIRLKSNNYVTNYAASVKGRFTISRDDSKNSVYLQMNSLKTEDTGVYYCTRAGYYVPFAYWGQGTLVTVSS VL: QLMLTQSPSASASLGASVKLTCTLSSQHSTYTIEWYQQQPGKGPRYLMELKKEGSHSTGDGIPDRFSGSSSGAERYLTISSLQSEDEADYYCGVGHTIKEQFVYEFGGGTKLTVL	49.8
anti-CD33 antibody 6C7H31 (antibody, V domains shown, VH/VL only) VH: EVQLVESGGGLVQPGGSLRLSCAASGSTFSEYDMLWVRQAPGKGLEWVGEIRLKSNNYVTNYAASVKGRFTISRDDSKNSVYLQMNSLKTEDTGVYYCTRAGYYVPFAYWGQGTLVTVSS VL: QPVLTQSPSASASLGASVKLTCTLSSQHSTYTIEWYQQQPEKGPRYLMELKKEGSHSTGDGIPDRFSGSSSGAERYLTISSLQSEDEADYYCGVGVTIKEQFVYVFGGGTKLTVL	67.7
anti-CD33 antibody 6C7H35 (antibody, V domains shown, VH/VL only) VH: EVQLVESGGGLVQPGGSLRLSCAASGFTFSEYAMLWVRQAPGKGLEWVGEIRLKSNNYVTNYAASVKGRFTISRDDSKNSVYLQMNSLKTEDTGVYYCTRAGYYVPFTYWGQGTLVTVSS VL: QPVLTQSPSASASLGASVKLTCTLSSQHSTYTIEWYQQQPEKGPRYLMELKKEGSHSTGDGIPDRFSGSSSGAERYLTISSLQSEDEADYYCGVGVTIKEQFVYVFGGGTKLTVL	51
anti-CD33 antibody 6C7H38 (antibody, V domains shown, VH/VL only) VH: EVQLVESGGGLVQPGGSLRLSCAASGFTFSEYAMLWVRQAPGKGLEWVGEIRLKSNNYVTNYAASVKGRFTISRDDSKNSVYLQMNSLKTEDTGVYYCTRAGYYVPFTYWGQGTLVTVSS VL: QPMLTQSPSASASLGASVKLTCTLSSQHSTYTIEWYQQQPGKGPRYLMELKKEGSHSTGDGIPDRFSGSSSGAERYLTISSLQSEDEADYYCGVGLTIKEQFVYVFGGGTKLTVL	27

Short answer for anti-CD33 antibody 6C7H34 (antibody, V domains shown, VH/VL only) VH: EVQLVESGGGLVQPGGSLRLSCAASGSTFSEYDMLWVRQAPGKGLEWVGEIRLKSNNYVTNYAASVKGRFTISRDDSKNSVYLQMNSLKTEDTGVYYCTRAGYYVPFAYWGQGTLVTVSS VL: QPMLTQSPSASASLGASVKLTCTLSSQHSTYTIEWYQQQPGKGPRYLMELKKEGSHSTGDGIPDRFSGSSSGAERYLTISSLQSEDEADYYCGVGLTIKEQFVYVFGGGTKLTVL : Receptor downregulation, (EC50) (pM) was 60.3

Documented Receptor downregulation, (EC50) (pM) of anti-CD33 antibody 6C7H51 (antibody, V domains shown, VH/VL only) VH: EVQLVESGGGLVQPGGSLRLSCAASGFTFSEYAMLWVRQAPGKGLEWVGEIRLKSNNYVTNYAASVKGRFTISRDDSKNSVYLQMNSLKTEDTGVYYCTRAGYYVPFAYWGQGTLVTVSS VL: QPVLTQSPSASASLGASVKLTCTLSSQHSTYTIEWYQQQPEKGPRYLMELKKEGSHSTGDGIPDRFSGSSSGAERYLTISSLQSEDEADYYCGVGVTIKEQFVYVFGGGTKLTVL : 42.4
